Where these numbers come from: patent US7271147B2

# Test system: Micrococcus luteus FDA16
Starred links: 1 amine or outer side, 2 acyl side, 3 side chain; linkers in the order of their positions; H or OH if unused. Positions of bridges follow the written chain, without caps; N, C: chain ends. Non-standard residues stand in square brackets, D forms with d. Residues, ends and D or L forms follow the SMILES beside them. ξ: configuration not given here. X4 = CC(C)CCCCCCCCCCC(CC(=O)[*:1])O[*:2]; X2 = CC(C)CCCCCCCCCC(CC(=O)[*:1])O[*:2]; X6 = CC(C)CCCCCCCCC(CC(=O)[*:1])O[*:2]; X5 = CC(C)CCCCCCCC(CC(=O)[*:1])O[*:2]; X3 = CC(C)CCCCCCC(CC(=O)[*:1])O[*:2]; ξAsp(3ξ-OH) = NC(C(=O)O)C(O)C(=O)O; X1 = O=C(C1C(O)CCN1[*:1])[*:2]
quantity name: MIC (µg/mL)

compound	quantity name	endpoint unit	sign	val
CC(C)CCCCCCC1CC(=O)NC(C(C)O)C(=O)N2CCCC2C(=O)N2CCCC2C(=O)NC(CCCNC(=N)N)C(=O)NC(C(O)C(=O)O)C(=O)NC(CO)C(=O)N2CCC(O)C2C(=O)NC(C(O)C(=O)O)C(=O)O1 (centres unmarked) [Tripropeptin Z] (TPPR[ξAsp(3ξ-OH)]S[X1][ξAsp(3ξ-OH)]; linker N-C via X3; configuration not given here)	MIC	µg/mL	<	0.39
CC(C)CCCCCCCCCCC1CC(=O)NC(C(C)O)C(=O)N2CCCC2C(=O)N2CCCC2C(=O)NC(CCCNC(=N)N)C(=O)NC(C(O)C(=O)O)C(=O)NC(CO)C(=O)N2CCC(O)C2C(=O)NC(C(O)C(=O)O)C(=O)O1 (centres unmarked) [Tripropeptin D] (TPPR[ξAsp(3ξ-OH)]S[X1][ξAsp(3ξ-OH)]; linker N-C via X4; configuration not given here)	MIC	µg/mL	=	0.2
CC(C)CCCCCCCCC1CC(=O)NC(C(C)O)C(=O)N2CCCC2C(=O)N2CCCC2C(=O)NC(CCCNC(=N)N)C(=O)NC(C(O)C(=O)O)C(=O)NC(CO)C(=O)N2CCC(O)C2C(=O)NC(C(O)C(=O)O)C(=O)O1 (centres unmarked) [Tripropeptin B] (TPPR[ξAsp(3ξ-OH)]S[X1][ξAsp(3ξ-OH)]; linker N-C via X6; configuration not given here)	MIC	µg/mL	=	0.2
CC(C)CCCCCCCCCC1CC(=O)NC(C(C)O)C(=O)N2CCCC2C(=O)N2CCCC2C(=O)NC(CCCNC(=N)N)C(=O)NC(C(O)C(=O)O)C(=O)NC(CO)C(=O)N2CCC(O)C2C(=O)NC(C(O)C(=O)O)C(=O)O1 (centres unmarked) [Tripropeptin C] (TPPR[ξAsp(3ξ-OH)]S[X1][ξAsp(3ξ-OH)]; linker N-C via X2; configuration not given here)	MIC	µg/mL	=	0.2
CC(C)CCCCCCCC1CC(=O)NC(C(C)O)C(=O)N2CCCC2C(=O)N2CCCC2C(=O)NC(CCCNC(=N)N)C(=O)NC(C(O)C(=O)O)C(=O)NC(CO)C(=O)N2CCC(O)C2C(=O)NC(C(O)C(=O)O)C(=O)O1 (centres unmarked) [Tripropeptin A] (TPPR[ξAsp(3ξ-OH)]S[X1][ξAsp(3ξ-OH)]; linker N-C via X5; configuration not given here)	MIC	µg/mL	<	0.39
